# Measured on: T1, human hippocampal Y5 receptor (human)
# T1 chain: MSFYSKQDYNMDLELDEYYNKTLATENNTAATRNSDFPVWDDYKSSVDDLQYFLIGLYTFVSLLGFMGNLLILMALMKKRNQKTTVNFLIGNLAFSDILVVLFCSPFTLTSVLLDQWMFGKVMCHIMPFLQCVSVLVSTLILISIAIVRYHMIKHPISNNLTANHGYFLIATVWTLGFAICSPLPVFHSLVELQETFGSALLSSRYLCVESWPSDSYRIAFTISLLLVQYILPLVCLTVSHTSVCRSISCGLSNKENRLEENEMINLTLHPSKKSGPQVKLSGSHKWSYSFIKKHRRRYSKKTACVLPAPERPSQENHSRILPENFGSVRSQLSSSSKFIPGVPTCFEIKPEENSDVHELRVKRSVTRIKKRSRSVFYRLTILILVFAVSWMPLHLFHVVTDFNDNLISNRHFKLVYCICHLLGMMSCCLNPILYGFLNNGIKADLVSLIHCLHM
# Experiment: 125I-PYY displacement, COS-7 membranes
Ends that are not written are not given here.
Measured attribute: Ki (nM)

Reference set (2 entries):
- Binder: "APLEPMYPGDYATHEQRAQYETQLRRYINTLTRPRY [rat PP]"
  Measured attribute: "Ki"
  Unit of measure: "nM"
  Value reported: 630
- Binder: "APLEPEYPGDNATPEQMAQYAAELRRYINMLTRPRY [bovine PP]"
  Measured attribute: "Ki"
  Unit of measure: "nM"
  Value reported: 1.6

[a] DLARYYSALRHYINLITRQRY (ends and bridges not checked) [porcine NPY16-36]
[b] TPEQMAQYAADLRRYINMLTRPRY [human PP13-36]
[c] PLEPVYPGDNATPEQMAQYAADLRRYINMLTRPRY [human PP2-36]
**Q:** Put the entries in order of Ki, starting with the largest number. Reply: labels, ordered per the request.
**A:** b, a, c

The values you see were collected from patent US20020103123A1.
